Below, each of the compounds is paired with its reported HC50 value.
- System: human red blood cells (hRBCs)
- Assay type: cell-based
- setupConditions: red cells of human, 1 h
Non-standard residues stand in square brackets, D forms with d. Residues, ends and D or L forms follow the SMILES beside them. *: point of attachment. Myristoyl = CCCCCCCCCCCCCC(=O)*; Decanoyl = CCCCCCCCCC(=O)*; Octanoyl = CCCCCCCC(=O)*; Hexanoyl = CCCCCC(=O)*
readout: HC50

{"compound": "CCCCCCCC(=O)N[C@@H](CCCCN)C(=O)N[C@@H](CCCNC(=N)N)C(=O)N[C@H](C(=O)N[C@@H](Cc1c[nH]c2ccccc12)C(=O)N[C@@H](CCC(N)=O)C(=O)N[C@@H](CCCNC(=N)N)C(N)=O)[C@@H](C)CC [Peptide C8-KR6] (Octanoyl-KRIWQR-NH2)", "value": ">200 µM"}
{"compound": "CCCCCC(=O)N[C@@H](CCCCN)C(=O)N[C@@H](CCCNC(=N)N)C(=O)N[C@H](C(=O)N[C@@H](Cc1c[nH]c2ccccc12)C(N)=O)[C@@H](C)CC [Peptide C6-KR4] (Hexanoyl-KRIW-NH2)", "value": ">200 µM"}
{"compound": "CCCCCCCCCCCCCC(=O)N[C@@H](CCCCN)C(=O)N[C@@H](CCCNC(=N)N)C(=O)N[C@H](C(=O)N[C@@H](Cc1c[nH]c2ccccc12)C(=O)N[C@@H](CCC(N)=O)C(=O)N[C@@H](CCCNC(=N)N)C(N)=O)[C@@H](C)CC [Peptide C14-KR6] (Myristoyl-KRIWQR-NH2)", "value": "<25 µM"}
{"compound": "CCCCCCCC(=O)N[C@@H](CCCCN)C(=O)N[C@@H](CCCNC(=N)N)C(=O)N[C@H](C(=O)N[C@@H](Cc1c[nH]c2ccccc12)C(=O)N[C@@H](CCC(N)=O)C(=O)N[C@@H](CCCNC(=N)N)C(=O)N[C@H](C(=O)N[C@@H](CCCCN)C(=O)N[C@@H](CC(=O)O)C(=O)N[C@@H](Cc1ccccc1)C(N)=O)[C@@H](C)CC)[C@@H](C)CC [Peptide C8-KR10] (Octanoyl-KRIWQRIKDF-NH2)", "value": "250 µM"}
{"compound": "CCCCCC(=O)N[C@@H](CCCCN)C(=O)N[C@@H](CCCNC(=N)N)C(=O)N[C@H](C(=O)N[C@@H](Cc1c[nH]c2ccccc12)C(=O)N[C@@H](CCC(N)=O)C(=O)N[C@@H](CCCNC(=N)N)C(=O)N[C@H](C(=O)N[C@@H](CCCCN)C(N)=O)[C@@H](C)CC)[C@@H](C)CC [Peptide C6-KR8] (Hexanoyl-KRIWQRIK-NH2)", "value": ">200 µM"}
{"compound": "CCCCCCCCCC(=O)N[C@H](CCCCN)C(=O)N[C@H](CCCNC(=N)N)C(=O)N[C@@H](C(=O)N[C@H](Cc1c[nH]c2ccccc12)C(=O)N[C@H](CCC(N)=O)C(=O)N[C@H](CCCNC(=N)N)C(=O)N[C@@H](C(=O)N[C@H](CCCCN)C(N)=O)[C@H](C)CC)[C@H](C)CC [Peptide C10-KR8d] (Decanoyl-[dK][dR][dI][dW][dQ][dR][dI][dK]-NH2)", "value": "300 µM"}
{"compound": "CCCCCCCC(=O)N[C@@H](CCCCN)C(=O)N[C@@H](CCCNC(=N)N)C(=O)N[C@H](C(=O)N[C@@H](Cc1c[nH]c2ccccc12)C(N)=O)[C@@H](C)CC [Peptide C8-KR4] (Octanoyl-KRIW-NH2)", "value": ">200 µM"}
